Data origin: the DeepSol protein solubility set

# protocol.text: soluble on expression in E. coli; label from the status in PepcDB or PDB records
experimental.readout: soluble on expression in E. coli

* RQTHYLIHSDLGFRTRGVLWISNTVDSVPKGILRAELEKIPGVEKVSYACGNPIRYLNNMSFTKDGVNVSTWEMVVDSVFFDFFEISPIPLTDEPVETFFDREKMRAARIIPEWGNMKMINAVRPDPETGIFTQGDDDNDEVKYRMVGRIPDLKYKPLNMEQSPLQIRPLYAREQPWVTLVRASDEADKSAVLAAVSDTYKRVTGAEDIEPLWAEDIILDRYKSQTNLSQ | not soluble
* MVKKEFQLTHIFKNVSKLKVGKFAWTPMKEHFNVSWQIAITRTHFRNEEKMEIQVGCQKLTKDDVPAGVEGEFTIKLTNSSGISTSKSSRLKLVKNGGLGFLKIVWKVMQDEYLIDDSIIIEATVKITKMTGISKKPLKCFDQSKEKFSDVILAVGDQKFFVLRKFLASHSTFFESRFLGNFDEADKSEVTLRDIDSADFQNLLEVLYGEPAIDDDTVDGILHLAHMYDIPLPIRKCEEFLIEVSEKSMKDQLVLAKQYQLEKLKVKKKT | not soluble
* MAHHHHHHMSDDIMNGDTLSEYRKIHKKNYEERIIKENELIEKQKTEELLNEKKKNEEIYRQLQIDKDREYSKQCYYEINNFQNIHERTYNDSDIRENYTQRLINPSAYSYIDNNMTQNLLDGDMGYTFSQRIRRFFLNK | not soluble
